System: TYRO3
Conditions: concentration: 1 μM, replicates: in singlicate; n = 1;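 further: KINOMEscan kinase panel screen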
measurement kind: %Inh (%)

molecule | result value
CCCC(=O)Nc1n[nH]c2ncc(-c3cccc4ccccc34)cc12 [SB-642057] | 0
Cc1cc(Nc2nc(-c3cccc(C)n3)nc3ccccc23)ccn1 [GW872411] | 0
Fc1cccc(CSc2nnc(-c3ccc4c(c3)CCO4)o2)c1 | 0
Cc1nnc(-c2ccc3ncn(-c4ccc(S(C)=O)cc4)c3c2)o1 (centres unmarked) | 12
Nc1ncnc2c1ncn2-c1cccc2ccccc12 [SKF-97184] | 0

====

Test system: GCN2(Kin.Dom.2,S808G)
Construct: gene EIF2AK4
Settings: concentration: 1 μM, replicates: in singlicate; n = 1

compound | %Inh / %
O=c1cc(N2CCOCC2)nc2n(Cc3ccc(F)c(Cl)c3)ccn12 | 2
Nc1ncnc2c1ncn2-c1ccc(Cl)cc1 | 0
Cc1cccc(-c2nc(Nc3ccc4c(cnn4C)c3)c3ccccc3n2)n1 | 12
COc1ccc(Nc2nccc(N3CCC(NS(=O)(=O)c4ccc(NC(C)=O)cc4)C3)n2)cc1 (stereo not drawn) | 14
CC(C)(C)c1ccc(C(=O)Nc2cn3cc(-c4ccccc4)ccc3n2)cc1 | 8
CN1C(=O)C(Nc2cc(Cl)c(O)c(Cl)c2)=C(c2ccc(Cl)cc2)C1=O | 6
Nc1n[nH]c2nnc(-c3ccccc3)c(-c3ccccc3)c12 | 8
COC(=O)c1c(-c2ccccc2)c2cc(C)ccc2c(=O)n1Cc1ccccc1 | 0
COc1cc(Nc2nccc(N3CCC(NC(=O)C4COc5ccccc5O4)C3)n2)cc(OC)c1OC (stereo not drawn) | 0

Source of measurements: paper PMC5540273
